Target: T1, human PVRIG on cells (human, UniProt Q6DKI7 1-326)
T1 construct: whole, on cells; over-expressed on HEK cells or endogenous on Jurkat and CD8 T cells; also called hPVRIG; HEK hPVRIG cells
T1 sequence (looked up): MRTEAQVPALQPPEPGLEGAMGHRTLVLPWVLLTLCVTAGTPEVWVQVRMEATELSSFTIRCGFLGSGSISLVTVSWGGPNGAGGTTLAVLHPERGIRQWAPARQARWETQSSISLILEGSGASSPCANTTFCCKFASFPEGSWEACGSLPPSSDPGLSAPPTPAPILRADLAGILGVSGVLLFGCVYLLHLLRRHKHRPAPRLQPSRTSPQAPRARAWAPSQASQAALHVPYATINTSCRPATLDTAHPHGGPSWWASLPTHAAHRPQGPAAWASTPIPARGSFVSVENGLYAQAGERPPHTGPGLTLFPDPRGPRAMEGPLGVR
Assay: FACS, HEK hPVRIG cells (HEK OE)
Reported Endpoint: EC50 (nM)
Express your answer in nM, writing the number without its unit.

- Binder: "CHA.7.543 (antibody, V domains shown) VH: QVQLKESGPGLVAPSQSLSITCTVSGFSLSGYGIKWVRQPPGKGLEWLGTIWGDGSTDYNSALKSRLSISKDNSKSQVFLKMTSLQTDDTARYYCASDSLGITFGYWGQGTLVTVSA VL: DIQMTQTTSSLSASLGDRVTISCRASQDISNYLNWYQQKPDGTVKLLIYYTSRLHSGVPSRFSGSGSGTDYSLTISNLEQEDIATYFCQQGNTLPLTFGAGTKLELK"
  EC50 / nM: 0.52

Below: the item to evaluate.
Request: Respond only with EC50 recorded for CHA.7.548 (antibody, V domains shown) VH: EVQLQQSGPELVKPGASVKISCKASGYTFTDYSMNWVKQSHGKSLEWIGDITPNNGSPNYNQKFKDKATLTVDKSSSTVYMELRSLTSEDSAVYYCASLFFDYWGHGTTLTVSS VL: DIVMTQSPSSLSVSAGEKVTMSCKSSQSLLNSGNQKNYLAWYQQKPGQPPKLLIYGASTRDSGVPDRFTGSGSGTDFTLTITSVQAEDLAVYYCQNDHTYPYTFGGGTKLEIK
Result: 0.27
